# target or system: T1, full-length untagged human GPNMB expressed on cells (human, UniProt Q14956 23-572)
# T1 construct: also used here for GPNMB on human monocyte-derived macrophages in the functional assays; also called huGPNMB; Freestyle293-huGPNMB+
# T1 sequence: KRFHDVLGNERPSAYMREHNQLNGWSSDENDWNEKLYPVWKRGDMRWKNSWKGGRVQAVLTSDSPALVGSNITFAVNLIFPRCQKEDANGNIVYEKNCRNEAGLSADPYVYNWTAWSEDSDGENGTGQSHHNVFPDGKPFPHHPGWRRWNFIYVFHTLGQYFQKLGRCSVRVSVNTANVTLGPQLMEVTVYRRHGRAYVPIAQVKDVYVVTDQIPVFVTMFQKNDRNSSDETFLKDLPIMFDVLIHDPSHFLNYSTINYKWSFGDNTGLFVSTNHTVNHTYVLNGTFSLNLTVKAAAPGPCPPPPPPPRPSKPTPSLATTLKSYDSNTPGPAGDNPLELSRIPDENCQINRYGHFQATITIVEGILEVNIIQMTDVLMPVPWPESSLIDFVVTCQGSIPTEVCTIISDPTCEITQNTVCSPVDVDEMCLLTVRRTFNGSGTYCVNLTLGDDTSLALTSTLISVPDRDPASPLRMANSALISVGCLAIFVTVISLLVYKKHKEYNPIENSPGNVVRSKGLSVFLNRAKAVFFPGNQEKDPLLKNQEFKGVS
# test summary: FACS, FS293-huGPNMB+ cells
This section presents binders with their documented MFI fold over background values.
Give the number; fold is assumed, so skip it.

Solved entries:
{"binder": "anti-GPNMB antibody GPN-65 (antibody, human IgG1, V domains shown, chimeric) VH: QLQLQQSGTEVVKPGASVKIPCKASGYAFSSYWMNWVKQRPGKGLEWIGQIYPGDGDTNDNGKFEGKATLTVDKSSNTAYIQLSSLTSEDSAVYFCARSPLHLRGSMDYWGQGTSVTVSS VL: SIVMTQTPKFLLVSAGDRVTITCKASQSVSNDVAWFQQKPGQSPELLIYSASNRYTGVPDRFTGSGYGTDFTFTISTVQAEDLAVYFCQQNYYSPFTFGGGTRLEIK", "MFI fold over background [fold]": 8.1}
{"binder": "anti-GPNMB antibody GPN-26 (antibody, human IgG1, V domains shown, chimeric) VH: EVQLQQSGPELVKPGASVKISCKASGYSFTGYYMNWVRQSPEKSLEWIGEINPSTGITTYNQKFKAKATLTVDKSSNTAFMQLKSLTSEDSAVYYCARPASWFDYWGQGTLVTVSA VL: DIQMTQSPSSLSASLGERVSLTCRASQEISGHLSWLQQKPDGTIKRLIYAASTLDSGVPKRFSGSRSGSDYSLTISSLESEDFADYYCLQYASYPYTFGGGTKLEIK", "MFI fold over background [fold]": 46.3}
{"binder": "anti-GPNMB antibody GPN-30 (antibody, human IgG1, V domains shown, chimeric) VH: EVQLQQSGPELVNPGASVRISCKASGYSFTGYYMNWVKQSPEKSLEWIGEINPNTGFTTYNQNFKAKATLTVDKSSSTAYIQLKSLTSEDSAVYYCTRPSPSFDYWGQGTTLTVSS VL: DIQMTQSPSSLSASLGERGSLTCRASQEISGHLSWLQQKPDGTIKRLIYAASTLDSGVPKRFSGSRSGSDYSLTISSLESEDFADYYCLQYASYPYTFGGGTKLEIK", "MFI fold over background [fold]": 34.4}
{"binder": "anti-GPNMB antibody GPN-08 (antibody, human IgG1, V domains shown, chimeric) VH: QVQLQQPGAELVKPGASVKLSCRASGYTFTSYWLHWVKQRPGQGLEWIGEINPSDGRTNYIEKVKTKATLTVDKSSSTAYMQLSSLTSEDSAVYYCARSGGNYAWFAYWGQGTLVTVSA VL: DIVMTQSHKFMSTSVGDRVSITCKASQDVSPSVAWYQQRPGQSPKLLIYSASYRYTGVPDRFTGSGSGTDFTFTISSVQAEDLAVYYCQQHYSIPLTFGAGTKLELK", "MFI fold over background [fold]": 74.4}

**Query** Value lookup for MFI fold over background; key = anti-GPNMB antibody GPN-37 (antibody, human IgG1, V domains shown, chimeric) VH: EVQLVESGGGLVQPGRSLKLSCAASGFTFSSKSGMAWVRQAPTKGLEWVASISNGGGDTYYRDSVKGRFTISRDNAKNTQYLQMDSLRPEDTATYYCARHRDYGYDAYFDYWGQGVMVTVSS VL: DIQMTQSPASLSASLGETVTIECLASEDIYSSLAWYQQKPGKSPQLLIYDASSLQDGVPSRFSGSESGTQYSLEINSLQSEDAATYFCQQHHDYPYTFGAGTKLELK
**Result** 105
